STUDY TARGET: agarose-immobilized hNE beads (Homo sapiens)
Sequence (P08246 30-267): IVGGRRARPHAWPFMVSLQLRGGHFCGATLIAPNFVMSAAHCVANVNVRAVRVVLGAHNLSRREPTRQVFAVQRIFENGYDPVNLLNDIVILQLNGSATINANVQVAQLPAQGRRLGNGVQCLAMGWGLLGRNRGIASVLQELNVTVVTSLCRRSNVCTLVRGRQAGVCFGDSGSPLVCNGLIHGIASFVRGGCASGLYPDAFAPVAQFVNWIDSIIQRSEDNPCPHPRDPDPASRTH
PROTOCOL DETAILS: pH fractionation of display phage on agarose-immobilized hNE beads
Format: binding
CONDITIONS USED: range of the affinity class
Ends that are not written are not given here.
PROPERTY: pH Elution Maximum

MUT1619: BITI-E7-141 with ITI-D1 residues restored at 16 and 19; SEQ ID NO 020 (RPDFCQLGYSAGPCVGMFSRYFYNGTSMACQTFVYGGCMGNGNNFVTEKDCLQTCRGA; MUT1619) | ≦4.0 pH
BITI-E7-141: BITI-E7 with the alterations E31Q and Q34V; SEQ ID NO 017 (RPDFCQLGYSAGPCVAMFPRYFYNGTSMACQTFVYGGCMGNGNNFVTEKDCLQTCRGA; BITI-E7-141) | ≦4.0 pH
MUTT26A: BITI-E7-141 with T26A; SEQ ID NO 018 (RPDFCQLGYSAGPCVAMFPRYFYNGASMACQTFVYGGCMGNGNNFVTEKDCLQTCRGA; MUTT26A) | ≦4.0 pH
ITI-D1: first Kunitz domain of human inter-α-trypsin inhibitor light chain, SEQ ID NO 016 (KEDSCQLGYSAGPCMGMTSRYFYNGTSMACETFQYGGCMGNGNNFVTEKDCLQTCRTV; disulfide (positions not given here); also: disulfides drawn as lines in table, pairing not given here) | >6.0 pH
